Source listed as PubChem BioAssay AID1963960.

- Test system: MDA-MB-468 spheroids with HUVEC/MSC, viability
- PROTOCOL_SUMMARY: Anticancer human tumor MDA-MB-468 cell line growth inhibition [PI3K];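 note: spheroids exposed to agents for seven days before readout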
- CONDITION_NOTES: curve of first compound; second compound 3.16 µM
Threshold 30 nM. IC50 below it: satisfied. IC50 at it or above: not satisfied.

{"MOLECULE": "C=CC(=O)N1CCN(c2nc(=O)n(-c3c(C)ccnc3C(C)C)c3nc(-c4c(O)cccc4F)c(F)cc23)C(C)C1 (stereo unspecified) + CC(Nc1ncnc2nc[nH]c12)c1cc2cccc(Cl)c2c(=O)n1-c1ccccc1", "CLASS_LABEL": "not satisfied"}
{"MOLECULE": "Cn1nccc1Nc1nccc(-c2ccn(C(CO)c3ccc(Cl)c(F)c3)c(=O)c2)n1 (stereo unspecified) + CC(Nc1ncnc2nc[nH]c12)c1cc2cccc(Cl)c2c(=O)n1-c1ccccc1", "CLASS_LABEL": "not satisfied"}
{"MOLECULE": "CC(C)n1nc(-c2ccc3oc(N)nc3c2)c2c(N)ncnc21 + Cc1nc(NC(=O)N2CCCC2C(N)=O)sc1-c1ccnc(C(C)(C)C(F)(F)F)c1", "CLASS_LABEL": "satisfied"}

// query Problem: For the molecule C[C@@H](NC(=O)c1ncnc(N)c1Cl)c1ncc(C(=O)Nc2cc(C(F)(F)F)c(Cl)cn2)s1 + Cc1nc(NC(=O)N2CCCC2C(N)=O)sc1-c1ccnc(C(C)(C)C(F)(F)F)c1 , is IC50 under 30 nM?
// result not satisfied

// query Lab note: confirm whether the reported IC50 for this molecule is below 30 nM, equality not counting. molecule: Cn1ncc(Cl)c1-c1cc(C(=O)NC(CN)Cc2cccc(F)c2)sc1Cl (stereo unspecified) + CC(Nc1ncnc2nc[nH]c12)c1cc2cccc(Cl)c2c(=O)n1-c1ccccc1
// result not satisfied

// query Say whether its IC50 is strictly beneath 30 nM. Entry: C#Cc1c(F)ccc2cc(O)cc(-c3ncc4c(N5CC6CCC(C5)N6)nc(OCC56CCCN5CC(F)C6)nc4c3F)c12 (stereo unspecified) + Cc1nc(NC(=O)N2CCCC2C(N)=O)sc1-c1ccnc(C(C)(C)C(F)(F)F)c1
// result not satisfied

// query Does the reported IC50 of the following molecule sit strictly below 30 nM? Cn1ncnc1[C@H]1c2n[nH]c(=O)c3cc(F)cc(c23)N[C@@H]1c1ccc(F)cc1 + CC(Nc1ncnc2nc[nH]c12)c1cc2cccc(Cl)c2c(=O)n1-c1ccccc1
// result not satisfied

// query Please indicate whether the reported IC50 of Cn1cnc2c(F)c(Nc3ccc(Br)cc3Cl)c(C(=O)NOCCO)cc21 + Cc1nc(NC(=O)N2CCCC2C(N)=O)sc1-c1ccnc(C(C)(C)C(F)(F)F)c1 is strictly below 30 nM.
// result satisfied

// query Hello, I'm reviewing records and need to know if IC50 of CC(Cn1ccc(-c2ccc(C#N)c(Cl)c2)n1)NC(=O)c1cc(C(C)O)[nH]n1 (stereo unspecified) + CC(Nc1ncnc2nc[nH]c12)c1cc2cccc(Cl)c2c(=O)n1-c1ccccc1 is below 30 nM. Could you check?
// result not satisfied

// query Strictly below 30 nM: is that where IC50 of CC1(C)CCC(CN2CCN(c3ccc(C(=O)NS(=O)(=O)c4ccc(NCC5CCOCC5)c([N+](=O)[O-])c4)c(Oc4cnc5[nH]ccc5c4)c3)CC2)=C(c2ccc(Cl)cc2)C1 + CC(Nc1ncnc2nc[nH]c12)c1cc2cccc(Cl)c2c(=O)n1-c1ccccc1 sits?
// result not satisfied

* * *

- System: MDA-MB-468 spheroids with HUVEC/MSC, viability
- PROTOCOL_SUMMARY: Anticancer human tumor MDA-MB-468 cell line growth inhibition [PI3K];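 note: spheroids exposed to agents for seven days before readout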;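 for viability, T/C: 100% = DMSO vehicle control viability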
- CONDITION_NOTES: second compound 0.01 µM; first compound 0.0316 µM; stronger effect = lower value
REPORTED_ENDPOINT: viability, T/C

Sample records with viability, T/C:
{"MOLECULE": "CC(C)n1nc(-c2ccc3oc(N)nc3c2)c2c(N)ncnc21 + COc1c(OCCCN2CCOCC2)ccc2c3n(c(=NC(=O)c4cnc(N)nc4)nc12)CCN3", "REPORTED": "61.1%"}
{"MOLECULE": "C=CC(=O)N1CCN(c2nc(=O)n(-c3c(C)ccnc3C(C)C)c3nc(-c4c(O)cccc4F)c(F)cc23)C(C)C1 (stereo not drawn) + CC(Nc1ccc2c(c1)OCCn1cc(N3C(=O)OCC3C(F)F)nc1-2)C(N)=O", "REPORTED": "91.3%"}

// query Please report the measured viability, T/C for Cn1nccc1Nc1nccc(-c2ccn(C(CO)c3ccc(Cl)c(F)c3)c(=O)c2)n1 (stereo not drawn) + CC(Nc1ccc2c(c1)OCCn1cc(N3C(=O)OCC3C(F)F)nc1-2)C(N)=O tested on MDA-MB-468 spheroids with HUVEC/MSC, viability.
// result 97%

* * *

- System: MDA-MB-468 spheroids with HUVEC/MSC, viability
- PROTOCOL_SUMMARY: Anticancer human tumor MDA-MB-468 cell line growth inhibition [PI3K];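 note: spheroids exposed to agents for seven days before readout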;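 for viability, T/C: 100% = DMSO vehicle control viability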
- CONDITION_NOTES: second compound 0.0316 µM; first compound 10 µM; stronger effect = lower value
REPORTED_ENDPOINT: viability, T/C (%)
Please state the figure in %; there is no need to write the unit.

{"COMPOUND": "Cn1ncc(Cl)c1-c1cc(C(=O)NC(CN)Cc2cccc(F)c2)sc1Cl (stereo not given) + COc1c(OCCCN2CCOCC2)ccc2c3n(c(=NC(=O)c4cnc(N)nc4)nc12)CCN3", "viability, T/C (%)": 12.1}
{"COMPOUND": "C[C@@H](NC(=O)c1ncnc(N)c1Cl)c1ncc(C(=O)Nc2cc(C(F)(F)F)c(Cl)cn2)s1 + CC(Nc1ccc2c(c1)OCCn1cc(N3C(=O)OCC3C(F)F)nc1-2)C(N)=O", "viability, T/C (%)": 81.4}
{"COMPOUND": "CC(Cn1ccc(-c2ccc(C#N)c(Cl)c2)n1)NC(=O)c1cc(C(C)O)[nH]n1 (stereo not given) + CC(Nc1ncnc2nc[nH]c12)c1cc2cccc(Cl)c2c(=O)n1-c1ccccc1", "viability, T/C (%)": 79.1}
{"COMPOUND": "CC1(C)CCC(CN2CCN(c3ccc(C(=O)NS(=O)(=O)c4ccc(NCC5CCOCC5)c([N+](=O)[O-])c4)c(Oc4cnc5[nH]ccc5c4)c3)CC2)=C(c2ccc(Cl)cc2)C1 + COc1c(OCCCN2CCOCC2)ccc2c3n(c(=NC(=O)c4cnc(N)nc4)nc12)CCN3", "viability, T/C (%)": 69.6}

// query Supply recorded viability, T/C for CC1(C)CCC(Nc2ncc(C(F)(F)F)c(-c3c[nH]c4c(P(C)(C)=O)c(C#N)ccc34)n2)CN1 (stereo not given) + Cc1nc(NC(=O)N2CCCC2C(N)=O)sc1-c1ccnc(C(C)(C)C(F)(F)F)c1 here.
// result 1.66

* * *

- Test system: MDA-MB-468 spheroids with HUVEC/MSC, viability
- PROTOCOL_SUMMARY: Anticancer human tumor MDA-MB-468 cell line growth inhibition [PI3K];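 note: spheroids exposed to agents for seven days before readout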;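 for viability, T/C: 100% = DMSO vehicle control viability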
- CONDITION_NOTES: second compound 0.1 µM; first compound 0.001 µM; stronger effect = lower value
Label key: T means viability, T/C under 80%; F means viability, T/C of 80% or more.

These solved cases illustrate the format of a correct answer.
{"MOLECULE": "Cn1ncnc1[C@H]1c2n[nH]c(=O)c3cc(F)cc(c23)N[C@@H]1c1ccc(F)cc1 + COc1c(OCCCN2CCOCC2)ccc2c3n(c(=NC(=O)c4cnc(N)nc4)nc12)CCN3", "CLASS_LABEL": "T"}
{"MOLECULE": "CC(=O)c1c(C)c2cnc(Nc3ccc(N4CCNCC4)cn3)nc2n(C2CCCC2)c1=O + COc1c(OCCCN2CCOCC2)ccc2c3n(c(=NC(=O)c4cnc(N)nc4)nc12)CCN3", "CLASS_LABEL": "T"}
{"MOLECULE": "CC(C)n1nc(-c2ccc3oc(N)nc3c2)c2c(N)ncnc21 + CC(Nc1ncnc2nc[nH]c12)c1cc2cccc(Cl)c2c(=O)n1-c1ccccc1", "CLASS_LABEL": "F"}

// query Lab log: compare recorded viability, T/C with 80%; is it strictly lower for CC(=O)c1c(C)c2cnc(Nc3ccc(N4CCNCC4)cn3)nc2n(C2CCCC2)c1=O + CC(Nc1ccc2c(c1)OCCn1cc(N3C(=O)OCC3C(F)F)nc1-2)C(N)=O ?
// result F

// query Find out if reported viability, T/C for Cn1ncnc1[C@H]1c2n[nH]c(=O)c3cc(F)cc(c23)N[C@@H]1c1ccc(F)cc1 + CC(Nc1ncnc2nc[nH]c12)c1cc2cccc(Cl)c2c(=O)n1-c1ccccc1 is less than 80%
// result F

// query Field: below-cutoff. Rule: recorded viability, T/C strictly less than 80%. Subject: Cn1ncnc1[C@H]1c2n[nH]c(=O)c3cc(F)cc(c23)N[C@@H]1c1ccc(F)cc1 + Cc1nc(NC(=O)N2CCCC2C(N)=O)sc1-c1ccnc(C(C)(C)C(F)(F)F)c1
// result F
